target: EPHB2 (UniProt P29323); assay: phosphorylation enrichment, bacterial display (enrichment ratio); higher = better substrate or ligand; peptides without Tyr show the background;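 further: 11-residue human phosphosite peptides and single-mutation variants displayed on the E. coli surface, counted by deep sequencing, each peptide's frequency after selection divided by its frequency in the unselected input library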;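 further: frequency after pTyr selection over input frequency; kinase dosed for 20-30% of maximal phosphorylation in three min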
Sequence (P29323 whole entry, looked up): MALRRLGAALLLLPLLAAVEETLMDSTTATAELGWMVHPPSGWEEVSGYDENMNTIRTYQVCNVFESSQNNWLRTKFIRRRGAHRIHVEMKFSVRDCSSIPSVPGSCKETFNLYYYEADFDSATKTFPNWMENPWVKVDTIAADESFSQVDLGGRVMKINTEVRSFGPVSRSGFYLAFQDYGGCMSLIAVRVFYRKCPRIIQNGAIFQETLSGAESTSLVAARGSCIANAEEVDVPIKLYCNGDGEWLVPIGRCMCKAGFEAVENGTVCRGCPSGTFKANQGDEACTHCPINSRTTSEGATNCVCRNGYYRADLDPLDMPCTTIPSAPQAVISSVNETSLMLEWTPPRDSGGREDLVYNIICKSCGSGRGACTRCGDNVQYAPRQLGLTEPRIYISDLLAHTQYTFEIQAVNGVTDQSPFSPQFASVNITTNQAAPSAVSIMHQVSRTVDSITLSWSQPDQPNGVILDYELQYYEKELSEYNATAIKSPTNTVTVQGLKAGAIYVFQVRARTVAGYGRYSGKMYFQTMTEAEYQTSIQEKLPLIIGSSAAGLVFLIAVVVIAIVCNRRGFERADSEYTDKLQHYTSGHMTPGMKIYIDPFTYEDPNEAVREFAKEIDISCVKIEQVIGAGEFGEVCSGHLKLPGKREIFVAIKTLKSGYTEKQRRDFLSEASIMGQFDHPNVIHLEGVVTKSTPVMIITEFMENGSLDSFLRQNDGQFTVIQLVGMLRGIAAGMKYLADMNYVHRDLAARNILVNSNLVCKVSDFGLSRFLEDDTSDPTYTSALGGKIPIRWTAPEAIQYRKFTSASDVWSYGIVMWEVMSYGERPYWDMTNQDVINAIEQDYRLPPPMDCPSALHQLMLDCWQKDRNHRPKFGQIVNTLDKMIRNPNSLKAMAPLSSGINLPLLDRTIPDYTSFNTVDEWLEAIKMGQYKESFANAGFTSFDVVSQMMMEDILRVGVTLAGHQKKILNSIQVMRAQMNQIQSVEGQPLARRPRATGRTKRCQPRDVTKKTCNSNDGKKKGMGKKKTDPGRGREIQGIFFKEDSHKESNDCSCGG
Please assign a class to every record based on measured phosphorylation enrichment, with ranges group A = under 0.5, group B = from 0.5 up to 0.9, group C = 0.9 and over

Completed entries (count: 5):
KVPELYEIHKE [BCR_Y554]; group B
KVDKEYEVRVR [GHR_Y226]; group B
SNNFIYTTLGV [FAM83B_Y639_K640T_YF]; group C
PRDSGYSYETI [MAP1B_Y1921_S1917R]; group B
DEEPPYRGPFC [SASH1_Y551]; group A

(Q) The entry to classify is TDLAFYLVCKG [ASL_Y376_R379C_YF] ; which class holds it?
(A) group B

(Q) Also, VNTTLYEKFTY [TEK_Y1108] please.
(A) group C

(Q) Also, ISSLRYKLLEE [TRPC6_Y896_E897K] please.
(A) group A

(Q) Also, KTTGGYAGGLS [KRT8_Y419_S417G] please.
(A) group A

(Q) Also, NSRYTCKLEVK [USH2A_Y3747_Y3747C] please.
(A) group B

(Q) Also, MFQVQYNSSVD [LRFN1_Y458_YF] please.
(A) group A

====

target: EPHB2 (UniProt P29323); test: phosphorylation enrichment, bacterial display (enrichment ratio); higher = better substrate or ligand; peptides without Tyr show the background
Please assign a class to every record based on measured phosphorylation enrichment, with ranges interval 1 (below 0.5), interval 2 (0.5 to below 0.8), interval 3 (0.8 or more)

Completed entries (count: 4):
QSSALYEDHYL [ASS1_Y83_R86H]; interval 3
KGPNVCKKTVN [REV3L_Y1156_Y1156C]; interval 2
IVAEFYDNLPH [DEGS1_Y284_A280V_YF]; interval 2
GMKIVYVFVKK [DNAI2_Y5_E2K_YF]; interval 2

(Q) The entry to classify is GGFNNYGFGND [HNRNPH3_Y159_YF] ; which class holds it?
(A) interval 3

(Q) Also, FRNSLYAPDFS [FAM92A_Y226_YF] please.
(A) interval 3

(Q) Also, GTPVMYTYDEY [COL10A1_Y623] please.
(A) interval 3

(Q) Also, FDDIACIRKTL [PIK3CA_Y1021_Y1021C] please.
(A) interval 2

(Q) Also, EYGSGYPNDPK [RNASEH2A_Y210_D205E] please.
(A) interval 1

(Q) Also, GPSTPYTKSKR [SMARCC2_Y324] please.
(A) interval 1

(Q) Also, IRKDLYANNVL [ACTA2_Y296] please.
(A) interval 1

(Q) Also, YVFSFYHAFSG [ACTN4_Y265_S262F] please.
(A) interval 3

====

target: EPHB2 (UniProt P29323); test: phosphorylation enrichment, bacterial display (enrichment ratio); higher = better substrate or ligand; peptides without Tyr show the background
Give phosphorylation enrichment for every item shown.
Give bare numbers.

Previously resolved entries follow.
QNAGDYFDLFG [PTPN11_Y62_T59A_YF]; 16.2
ASYGPYTRVQS [FOXL2_Y258]; 0.583
RVLQLYGCSPS [ASTL_Y279_K277Q]; 1.71
FIGVTYKNEED [PDGFRA_Y993_YF]; 0.484
AEYGLYGAMVW [VSX2_Y222_R227W]; 4
ASTDYNKRGDF [PDHA1_Y243_Y243N]; 0.474

Below is a list of sequences. For each, state its recorded phosphorylation enrichment.
1. VLTSKYCGGGG [HBA1_Y141_R142C]
2. LLREWYLQDPF [SIX3_Y225_YF]
3. LSALDYKIFFF [WDPCP_Y210_YF]
4. NLDRFYQQVTK [SEC16A_Y1041]
5. YSDPSYVKQME [CDC5L_Y464]
6. SENAFYLSPDI [COL6A3_Y2827]

(A)
1: 0.419; 2: 0.765; 3: 0.71; 4: 0.531; 5: 0.57; 6: 0.687

Below is a list of sequences. For each, state its recorded phosphorylation enrichment.
1. RLYARYFQGDL [PDK3_Y337]
2. QLQQAYQEAFE [YWHAZ_Y149_S145L]

(A)
1: 0.664; 2: 1.69

====

tested on: c-Abl (mouse); experiment: phosphorylation enrichment, bacterial display (enrichment ratio); higher = better substrate or ligand; peptides without Tyr show the background
RECORDED ENDPOINT: phosphorylation enrichment
Numbers only.

PEVRRYVLPLN [RPE65_Y368]; 1.44

Below is a list of sequences. For each, state its recorded phosphorylation enrichment.
1. SSSGGYGGGYG [KRT19_Y61_A60G]
2. GRRGQYVMPSE [TTC7A_Y396_L399P]
3. HQPGEYIFHAE [FLT3_Y416]

(A)
0.374
0.482
1.11

Below is a list of sequences. For each, state its recorded phosphorylation enrichment.
1. CTNIHYNFMCN [TP53_Y234_T231N_YF]
2. PTEAQYRFIFM [PTPN11_Y511_Q506P_YF]
3. QRNEEYCLLDS [ITK_Y198_R193Q]
4. PLQNTYNYNVL [SLC4A1_Y553_K551N]
5. YRDALYKFMVD [PHEX_Y250]
6. QSKGIYYVQLE [MGAT4B_Y262]
7. SGSWSYNTSTE [SELE_Y24_A21S]

(A)
[0.655, 1.32, 1.67, 1.51, 0.803, 1.1, 0.787]

Below is a list of sequences. For each, state its recorded phosphorylation enrichment.
1. RGDVIYKGFED [NFU1_Y194_G189R]
2. LYSINYLHFGD [KDM4C_Y201_E206D]
3. QKINNYLTVPA [SLC9A1_Y683]

(A)
1: 0.445; 2: 1.73; 3: 0.833

====

target: Jak2 (UniProt O60674); assay: phosphorylation enrichment, bacterial display (enrichment ratio); higher = better substrate or ligand; peptides without Tyr show the background
Sequence (O60674 whole entry, looked up): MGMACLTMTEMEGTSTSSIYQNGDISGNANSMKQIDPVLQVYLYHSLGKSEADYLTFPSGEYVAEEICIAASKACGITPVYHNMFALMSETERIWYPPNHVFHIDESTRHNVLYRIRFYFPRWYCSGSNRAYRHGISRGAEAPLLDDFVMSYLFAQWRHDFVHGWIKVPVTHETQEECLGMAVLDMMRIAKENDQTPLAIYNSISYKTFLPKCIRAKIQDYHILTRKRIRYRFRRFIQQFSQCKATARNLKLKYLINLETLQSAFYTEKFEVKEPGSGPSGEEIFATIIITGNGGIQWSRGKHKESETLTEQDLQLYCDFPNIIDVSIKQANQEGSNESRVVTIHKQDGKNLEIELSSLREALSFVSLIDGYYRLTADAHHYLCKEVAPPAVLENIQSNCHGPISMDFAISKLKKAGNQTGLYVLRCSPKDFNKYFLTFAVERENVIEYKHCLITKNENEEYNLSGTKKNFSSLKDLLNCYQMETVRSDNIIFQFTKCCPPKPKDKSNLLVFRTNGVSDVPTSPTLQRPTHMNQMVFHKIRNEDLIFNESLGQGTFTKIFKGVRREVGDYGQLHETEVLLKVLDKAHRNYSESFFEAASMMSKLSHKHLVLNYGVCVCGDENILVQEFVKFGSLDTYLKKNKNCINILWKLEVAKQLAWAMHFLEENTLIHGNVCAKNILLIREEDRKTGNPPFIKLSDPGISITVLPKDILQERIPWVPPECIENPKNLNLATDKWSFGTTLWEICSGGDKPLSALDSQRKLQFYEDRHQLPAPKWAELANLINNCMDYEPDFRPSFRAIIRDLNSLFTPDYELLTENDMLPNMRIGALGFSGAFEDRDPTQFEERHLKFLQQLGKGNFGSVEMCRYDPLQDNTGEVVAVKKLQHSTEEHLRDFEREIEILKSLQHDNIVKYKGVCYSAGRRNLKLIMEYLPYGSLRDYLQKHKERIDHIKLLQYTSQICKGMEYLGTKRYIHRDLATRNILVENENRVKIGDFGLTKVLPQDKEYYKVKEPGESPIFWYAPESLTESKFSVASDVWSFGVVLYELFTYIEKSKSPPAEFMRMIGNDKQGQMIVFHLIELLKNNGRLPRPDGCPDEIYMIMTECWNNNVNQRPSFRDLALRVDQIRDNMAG
Give phosphorylation enrichment for every item shown.
Answers are plain numbers.

Previously resolved entries follow.
THQKSYQPGRK [CEFIP_Y210_N208K]; 0.349
TGNPAYRSFSN [IL4R_Y497_A492T]; 0.422
DVFLKYLNFAT [PDE6B_Y212]; 1.56
ISSLRYKLLEE [TRPC6_Y896_E897K]; 0.64
HSGIFYKPESL [L2HGDH_Y103_YF]; 2.08
LSALDYKIFFF [WDPCP_Y210_YF]; 0.991
AVSHRYDLGGL [QPRT_Y162_A158V]; 0.467
KVPELYEIHKE [BCR_Y554]; 0.766
LLARLYRGQAL [FGFR4_Y390_G388R]; 0.823
PQGVRYTFTID [DCX_Y103_I104T_YF]; 1.48

Below is a list of sequences. For each, state its recorded phosphorylation enrichment.
1. LEIETDRRLLD [KRT12_Y429_Y429D]
2. QSHKVYVQHLL [POR_Y604]
3. DSKIRYLSADS [TTF1_Y476_E473K]
4. CYSSEYHYVGG [CTSC_Y345_Y340C]

(A)
2.8
0.798
0.611
1.77

====

system: AncSZ; assay: phosphorylation enrichment, bacterial display (enrichment ratio); higher = better substrate or ligand; peptides without Tyr show the background
Kindly return Fulfilled if reported phosphorylation enrichment is no lower than 0.7; return Not fulfilled if it is lower.

(Q) Has PELINYHQHNS [BTK_Y361] a recorded phosphorylation enrichment greater than or equal to 0.7?
(A) Fulfilled

(Q) Also, LESTLYESSVV [TRPV4_Y91] please.
(A) Fulfilled

(Q) Also, GQETSYIEDNC [PAH_Y24] please.
(A) Fulfilled

(Q) Also, LYVDVYGPSVP [NUBPL_Y109_D105Y] please.
(A) Fulfilled

(Q) Also, ENPAKYDDIKK [GAPDH_Y255_K251N] please.
(A) Fulfilled

(Q) Also, MGGSVYFSYPD [HIKESHI_Y55] please.
(A) Fulfilled

(Q) Also, RSFLSYYTSHV [NEFL_Y442_P440L] please.
(A) Fulfilled

(Q) Also, SNNYIYKTLGV [FAM83B_Y639] please.
(A) Not fulfilled

====

test system: c-Src; test: phosphorylation enrichment, bacterial display (enrichment ratio); higher = better substrate or ligand; peptides without Tyr show the background
Give phosphorylation enrichment for every item shown.
Answers are plain numbers.

Previously resolved entries follow.
ADCRFYTFPQM [GAMT_Y223_A224T_YF]; 1.24
QMIETYFDFRL [NSMF_Y506]; 8.42
EEGRVYVYRLS [ITGAE_Y549]; 0.698

Below is a list of sequences. For each, state its recorded phosphorylation enrichment.
1. ESMNIYLQTSP [NAT1_Y208_T207I]
2. GMKIVYVFVKK [DNAI2_Y5_E2K_YF]

(A)
1. 1.06
2. 0.394

// provenance: the supplement of paper PMC10065799
